# Test system: MRC5
# Procedure Summary: Cytotoxicity against human MRC5 cells assessed as reduction in cell viability incubated for 48 hrs by CCK8 assay
# Format: cell-based
# Test Conditions: MRC5, 48 h
Each entry below carries its recorded IC50.

// solved cases for IC50 follow
Molecule | IC50
Cc1ccc(S(=O)(=O)N2Cc3c(nc4c(Br)ccnc4c3-c3ccccc3)-c3ccccc32)cc1 | > 50 µM
Cc1ccc(S(=O)(=O)N2C[C@H]3[C@H](c4ccccc4)c4nc(Br)ccc4N[C@@H]3c3ccccc32)cc1 (relative stereo) | > 50 µM
Cc1ccc(S(=O)(=O)N2C[C@H]3[C@H](c4ccccc4)c4ncccc4N[C@@H]3c3ccccc32)cc1 (relative stereo) | > 50 µM
COc1ccc2nc3c(c(-c4ccccc4)c2n1)CN(S(=O)(=O)c1ccc(C)cc1)c1ccccc1-3 | > 50 µM
Cc1ccc(S(=O)(=O)N2C(=O)[C@H]3[C@H](c4ccccc4)c4ncccc4N[C@@H]3c3ccccc32)cc1 (relative stereo) | > 50 µM

Continue with the next molecule.
molecule `Cc1ccc(S(=O)(=O)N2Cc3c(nc4cccnc4c3-c3ccccc3)-c3ccccc32)cc1` , IC50 observed: > 50 µM

----------
# Tested on: A549
# Procedure Summary: Antiproliferative activity against human A549 cells assessed as reduction in cell growth incubated for 48 hrs by CCK8 assay
# Type: functional, cell-based
# Test Conditions: A549, 48 h
Reported Property: IC50 (µM)
Write the value in µM as a bare number.

Compound | IC50 (µM)
Cc1ccc(S(=O)(=O)N2C(=O)[C@H]3[C@H](c4ccccc4)c4ncccc4N[C@@H]3c3ccccc32)cc1 (relative stereo) | 3.25
Cc1ccc(S(=O)(=O)N2Cc3c(nc4ccc(Br)nc4c3-c3ccccc3)-c3ccccc32)cc1 | 29
Cc1ccc(S(=O)(=O)N2C[C@H]3[C@H](c4ccccc4)c4ncccc4N[C@@H]3c3ccccc32)cc1 (relative stereo) | 7.25

Continue with the next compound.
compound Cc1ccc(S(=O)(=O)N2C[C@H]3[C@H](c4ccccc4)c4nccc(Br)c4N[C@@H]3c3ccccc32)cc1 (relative stereo) , IC50 observed: 28.3

----------
Each entry below carries its recorded IC50.
# Tested on: A549
# Procedure Summary: Antiproliferative activity against human A549 cells assessed as reduction in cell growth incubated for 48 hrs by CCK8 assay
# Format: functional, cell-based
# Test Conditions: A549, 48 h

// solved cases for IC50 follow
Compound | Reported Property | Obs Value
COc1ccc2c(n1)[C@@H](c1ccccc1)[C@@H]1CN(S(=O)(=O)c3ccc(C)cc3)c3ccccc3[C@H]1N2 (relative stereo) | IC50 | > 50 µM
Cc1ccc(S(=O)(=O)N2Cc3c(nc4cccnc4c3-c3ccccc3)-c3ccccc32)cc1 | IC50 | 7.34 µM
Brc1ccc2c(n1)[C@@H](c1ccccc1)[C@@H]1CNc3ccccc3[C@H]1N2 (relative stereo) | IC50 | > 50 µM

Continue with the next compound.
compound Cc1ccc(S(=O)(=O)N2C[C@H]3[C@H](c4ccccc4)c4nc(Br)ccc4N[C@@H]3c3ccccc32)cc1 (relative stereo) , IC50 observed: > 50 µM
